SUBJECT_OF_TEST: noradrenalin reuptake (NA uptake) (Rattus norvegicus, UniProt Q9WTR4)
Construct: These vesicular particles were isolated from the hypothalamus of male rats' brains for NA uptake; from tissue; host or cells: rat brain synaptosomes (P2 fraction; cerebral cortex / hypothalamus of male rats)
Sequence (Q9WTR4 1-597): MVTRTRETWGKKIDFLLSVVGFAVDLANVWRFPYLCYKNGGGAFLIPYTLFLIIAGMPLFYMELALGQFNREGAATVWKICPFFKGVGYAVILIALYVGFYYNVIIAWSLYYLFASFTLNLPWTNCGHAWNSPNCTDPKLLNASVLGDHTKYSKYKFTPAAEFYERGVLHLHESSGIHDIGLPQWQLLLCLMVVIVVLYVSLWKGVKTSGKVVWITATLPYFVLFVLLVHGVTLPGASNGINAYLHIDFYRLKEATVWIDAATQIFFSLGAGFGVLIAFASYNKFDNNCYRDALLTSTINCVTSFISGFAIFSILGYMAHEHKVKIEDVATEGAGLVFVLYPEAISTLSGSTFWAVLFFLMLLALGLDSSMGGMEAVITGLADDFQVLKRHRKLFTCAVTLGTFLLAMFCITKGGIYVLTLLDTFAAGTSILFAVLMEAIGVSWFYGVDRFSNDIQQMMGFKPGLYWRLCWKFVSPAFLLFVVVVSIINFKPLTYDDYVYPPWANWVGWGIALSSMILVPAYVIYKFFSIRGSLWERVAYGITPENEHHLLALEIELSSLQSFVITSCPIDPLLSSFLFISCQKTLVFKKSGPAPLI
PROCEDURE_DETAILS: Noradrenalin reuptake inhibition (NA uptake inhibition) in rat brain synaptosomes
Assay type: biochemical
ASSAY_CONDITIONS: synaptosomes from male rats' brains
As shown below, each of these molecules has a reported NA-uptake, inhibition [10 μM] value.
# respond with the number and nothing more

Observe how each entry below is paired with its result.
MOLECULE: O=C(c1ccc([N+](=O)[O-])cc1Cl)N1CCC(c2cn(Cc3ccc(C(F)(F)F)cc3)c3ccccc23)C1 (centres unmarked) [Compound 39]
NUMERIC_VALUE: 41

MOLECULE: CCn1cc(C2CCN(C(=O)c3ccc(C(F)(F)F)cc3)C2)c2ccccc21 (centres unmarked) [Compound 48]
NUMERIC_VALUE: 40

MOLECULE: Cn1cc(C2CCN(C(=O)C=Cc3ccccc3)C2)c2ccccc21 (centres unmarked) [Compound 26]
NUMERIC_VALUE: 44

State its NA-uptake, inhibition [10 μM] for this molecule: CCn1cc(C2CCN(C(=O)c3cccnc3)C2)c2ccccc21 (centres unmarked) [Compound 28]
52

State its NA-uptake, inhibition [10 μM] for this molecule: C#CCn1cc(C2CCN(C(=O)c3cccnc3SC)C2)c2ccccc21 (centres unmarked) [Compound 44]
49

====

SUBJECT_OF_TEST: serotonin reuptake (5HT uptake) (Rattus norvegicus, UniProt P31652)
Construct: These vesicular particles were isolated from the hypothalamus of male rats' brains for 5HT uptake; from tissue; host or cells: rat brain synaptosomes (P2 fraction; cerebral cortex / hypothalamus of male rats)
Sequence (P31652 whole entry): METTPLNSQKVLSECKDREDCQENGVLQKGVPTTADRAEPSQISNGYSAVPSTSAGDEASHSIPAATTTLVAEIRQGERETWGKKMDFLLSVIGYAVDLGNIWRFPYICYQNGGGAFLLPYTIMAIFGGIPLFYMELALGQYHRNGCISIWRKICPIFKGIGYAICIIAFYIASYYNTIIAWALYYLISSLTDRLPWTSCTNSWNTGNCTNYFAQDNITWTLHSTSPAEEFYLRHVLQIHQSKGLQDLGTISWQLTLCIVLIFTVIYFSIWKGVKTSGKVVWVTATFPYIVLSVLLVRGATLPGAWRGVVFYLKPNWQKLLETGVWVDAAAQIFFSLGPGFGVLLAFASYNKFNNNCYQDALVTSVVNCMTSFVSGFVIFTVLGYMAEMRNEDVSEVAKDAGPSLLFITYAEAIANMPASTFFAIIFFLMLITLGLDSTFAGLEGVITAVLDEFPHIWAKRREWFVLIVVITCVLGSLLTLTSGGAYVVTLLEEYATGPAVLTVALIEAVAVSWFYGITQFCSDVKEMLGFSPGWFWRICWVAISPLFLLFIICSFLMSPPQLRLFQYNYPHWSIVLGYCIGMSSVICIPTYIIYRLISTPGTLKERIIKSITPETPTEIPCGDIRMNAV
PROCEDURE_DETAILS: Serotonin reuptake inhibition (5HT uptake inhibition) in rat brain synaptosomes
Format: biochemical
ASSAY_CONDITIONS: synaptosomes from male rats' brains
Classify by measured inhibition at 10 µM: 1 if it is equal to or exceeds 50%, -1 if it is smaller.

Some solved entries appear below for comparison.
COMPOUND: CC#CCn1cc(C2CCN(CC(=O)Nc3cc(C)nn3C)C2)c2ccccc21 (centres unmarked)
SUBJECT_OF_TEST: serotonin reuptake (5HT uptake) (Rattus norvegicus, UniProt P31652)
CLASS_NAME: 1

COMPOUND: COc1cccc(Cn2cc(C3CCN(C(=O)c4ccc(C)cc4)C3)c3ccccc32)c1 (centres unmarked)
SUBJECT_OF_TEST: serotonin reuptake (5HT uptake) (Rattus norvegicus, UniProt P31652)
CLASS_NAME: -1

Is reported inhibition at 10 µM greater than or equal to 50% here: O=C(c1ccc([N+](=O)[O-])cc1Cl)N1CCC(c2cn(Cc3cccc(F)c3)c3ccccc23)C1 (centres unmarked)
1

====

SUBJECT_OF_TEST: noradrenalin reuptake (NA uptake) (Rattus norvegicus, UniProt Q9WTR4)
Construct: These vesicular particles were isolated from the hypothalamus of male rats' brains for NA uptake; from tissue; host or cells: rat brain synaptosomes (P2 fraction; cerebral cortex / hypothalamus of male rats)
PROCEDURE_DETAILS: Noradrenalin reuptake inhibition (NA uptake inhibition) in rat brain synaptosomes
Format: biochemical
ASSAY_CONDITIONS: synaptosomes from male rats' brains
As shown below, each of these molecules has a reported inhibition at 10 µM value.
// return numeric value only (unit: %, not printed)

Observe how each entry below is paired with its result.
MOLECULE: CCn1cc(C2CCN(C(=O)CCc3ccccc3)C2)c2ccccc21 (stereo not shown)
inhibition at 10 µM (%): 48
--
MOLECULE: Cc1ccc(F)c(C(=O)N2CCC(c3cn(Cc4ccc(C#N)cc4)c4ccccc34)C2)c1Cl (stereo not shown)
inhibition at 10 µM (%): 41
--
MOLECULE: Cn1cc(C2CCN(C(=O)c3ccc(-c4ccccc4)cc3)C2)c2ccccc21 (stereo not shown)
inhibition at 10 µM (%): 43

Turning now to a further record.
State its inhibition at 10 µM for this molecule: COCC(=O)N1CCC(c2cn(Cc3cccc(OC)c3)c3ccccc23)C1 (stereo not shown)
43

====

As shown below, each of these compounds has a reported BTX bond, % inhibition [10 μM] value.
Test system: binding site 2 of the sodium channel (batrachotoxin (BTX) binding site)
PROCEDURE_DETAILS: Binding test on the sodium channel, binding site 2 (BTX bond), [3H]-batrachotoxinin A20 α-benzoate as ligand
Design: species or system rat
ASSAY_CONDITIONS: 10 μM; rat cerebrocortex synaptosomes; ligand 10 nM; 25° C., 120 min
// return numeric value only (unit: %, not printed)

Observe how each entry below is paired with its result.
COMPOUND: O=C(c1ccc([N+](=O)[O-])cc1Cl)N1CCC(c2cn(Cc3ccc(C(F)(F)F)cc3)c3ccccc23)C1 (stereo not shown)
BTX bond, % inhibition [10 μM] / %: 90
//
COMPOUND: O=C(c1cccc(F)c1F)N1CCC(c2cn(Cc3ccc(C(F)(F)F)cc3)c3ccccc23)C1 (stereo not shown)
BTX bond, % inhibition [10 μM] / %: 92
//
COMPOUND: O=C(c1ccc([N+](=O)[O-])cc1Cl)N1CCC(c2cn(Cc3cccc(F)c3)c3ccccc23)C1 (stereo not shown)
BTX bond, % inhibition [10 μM] / %: 91

Turning now to a further record.
State its BTX bond, % inhibition [10 μM] for this compound: CCCc1ccc(C(=O)N2CCC(c3cn(Cc4ccc(C(F)(F)F)cc4)c4ccccc34)C2)cc1 (stereo not shown)
95

====

As shown below, each of these compounds has a reported inhibition at 10 µM value.
SUBJECT_OF_TEST: noradrenalin reuptake (NA uptake) (Rattus norvegicus, UniProt Q9WTR4)
Construct: These vesicular particles were isolated from the hypothalamus of male rats' brains for NA uptake; from tissue; host or cells: rat brain synaptosomes (P2 fraction; cerebral cortex / hypothalamus of male rats)
PROCEDURE_DETAILS: Noradrenalin reuptake inhibition (NA uptake inhibition) in rat brain synaptosomes
Assay type: biochemical
ASSAY_CONDITIONS: synaptosomes from male rats' brains
// return numeric value only (unit: %, not printed)

Observe how each entry below is paired with its result.
COMPOUND: CCn1cc(C2CCN(C(=O)c3c(-c4ccccc4Cl)noc3C)C2)c2ccccc21 (centres unmarked)
inhibition at 10 µM [%]: 44

COMPOUND: CCN(CC)C(=O)Cn1cc(C2CCN(CC(=O)Nc3ccc(C(F)(F)F)cc3)C2)c2ccccc21 (centres unmarked)
inhibition at 10 µM [%]: 57

COMPOUND: O=C(c1ccc(SC(F)(F)F)cc1)N1CCC(c2c[nH]c3ccccc23)C1 (centres unmarked)
inhibition at 10 µM [%]: 49

COMPOUND: COc1cccc(Cn2cc(C3CCN(C(=O)Cc4ccc(Cl)cc4)C3)c3ccccc32)c1 (centres unmarked)
inhibition at 10 µM [%]: 20

COMPOUND: N#Cc1ccc(Cn2cc(C3CCN(C(=O)c4ccc5nonc5c4)C3)c3ccccc32)cc1 (centres unmarked)
inhibition at 10 µM [%]: 49

COMPOUND: CCn1cc(C2CCN(C(=O)c3cc(C(F)(F)F)ccc3Cl)C2)c2ccccc21 (centres unmarked)
inhibition at 10 µM [%]: 49

State its inhibition at 10 µM for this compound: CC#CCn1cc(C2CCN(CC(=O)Nc3cc(C)nn3C)C2)c2ccccc21 (centres unmarked)
100

State its inhibition at 10 µM for this compound: CCn1cc(C2CCN(CC(=O)Nc3scc(C)c3C#N)C2)c2ccccc21 (centres unmarked)
54

====

SUBJECT_OF_TEST: serotonin reuptake (5HT uptake) (Rattus norvegicus)
Construct: These vesicular particles were isolated from the hypothalamus of male rats' brains for 5HT uptake; from tissue; host or cells: rat brain synaptosomes (P2 fraction; cerebral cortex / hypothalamus of male rats)
PROCEDURE_DETAILS: Serotonin reuptake inhibition (5HT uptake inhibition) in rat brain synaptosomes
Type: biochemical
ASSAY_CONDITIONS: synaptosomes from male rats' brains
ASSAY_METRIC: inhibition at 10 µM (%)
// return numeric value only (unit: %, not printed)

Observe how each entry below is paired with its result.
MOLECULE: O=C(c1ccccc1Cl)N1CCC(c2c[nH]c3ccccc23)C1 (stereo not shown)
SUBJECT_OF_TEST: serotonin reuptake (5HT uptake) (Rattus norvegicus)
inhibition at 10 µM / %: 70
//
MOLECULE: CN(C)C(=O)Cn1cc(C2CCN(C(=O)c3ccccn3)C2)c2ccccc21 (stereo not shown)
SUBJECT_OF_TEST: serotonin reuptake (5HT uptake) (Rattus norvegicus)
inhibition at 10 µM / %: 84
//
MOLECULE: CSc1ncccc1C(=O)N1CCC(c2cn(C)c3ccccc23)C1 (stereo not shown)
SUBJECT_OF_TEST: serotonin reuptake (5HT uptake) (Rattus norvegicus)
inhibition at 10 µM / %: 64
//
MOLECULE: COc1cccc(Cn2cc(C3CCN(C(=O)CCc4ccccc4)C3)c3ccccc32)c1 (stereo not shown)
SUBJECT_OF_TEST: serotonin reuptake (5HT uptake) (Rattus norvegicus)
inhibition at 10 µM / %: 42
//
MOLECULE: Cc1oc(C(C)(C)C)cc1C(=O)N1CCC(c2cn(Cc3ccccc3C#N)c3ccccc23)C1 (stereo not shown)
SUBJECT_OF_TEST: serotonin reuptake (5HT uptake) (Rattus norvegicus)
inhibition at 10 µM / %: 87
//
MOLECULE: Cc1cc(C)cc(Cn2cc(C3CCN(CC(=O)Nc4scc(C)c4C#N)C3)c3ccccc32)c1 (stereo not shown)
SUBJECT_OF_TEST: serotonin reuptake (5HT uptake) (Rattus norvegicus)
inhibition at 10 µM / %: 83
//
MOLECULE: Cc1nc(C(F)(F)F)ccc1C(=O)N1CCC(c2cn(Cc3cccc(F)c3)c3ccccc23)C1 (stereo not shown)
SUBJECT_OF_TEST: serotonin reuptake (5HT uptake) (Rattus norvegicus)
inhibition at 10 µM / %: 82
//
MOLECULE: Cn1cc(C2CCN(C(=O)c3ccc(-c4ccccc4)cc3)C2)c2ccccc21 (stereo not shown)
SUBJECT_OF_TEST: serotonin reuptake (5HT uptake) (Rattus norvegicus)
inhibition at 10 µM / %: 80

State its inhibition at 10 µM for this molecule: COc1cccc(Cn2cc(C3CCN(C(=O)Cc4ccc(Cl)cc4)C3)c3ccccc32)c1 (stereo not shown)
46

State its inhibition at 10 µM for this molecule: COCC(=O)N1CCC(c2cn(Cc3cccc(OC)c3)c3ccccc23)C1 (stereo not shown)
44

State its inhibition at 10 µM for this molecule: O=C(C1CCC1)N1CCC(c2c[nH]c3ccccc23)C1 (stereo not shown)
58

State its inhibition at 10 µM for this molecule: CN(C)C(=O)Cn1cc(C2CCN(C(=O)NCc3ccc(Cl)c(Cl)c3)C2)c2ccccc21 (stereo not shown)
43
